Experimental Target: CK1δ (Homo sapiens (Human))
// returns no (0) unless IC50 is strictly below 0.2 nM, in which case yes (1)

Dear reviewer, please state whether Cc1nc(-c2ccc(F)cc2)c(-c2ccc3nc(NC(=O)c4ncc[nH]4)cn3n2)n1C [Compound 373] has IC50 strictly beneath 0.2 nM.
no (0)

Is IC50 strictly under 0.2 nM for the entry Cc1nc(-c2ccc(Cl)cc2)c(-c2ccc3nc(NC(=O)c4ccnc(F)c4)cn3n2)n1CCF [Compound 293] ?
yes (1)

Say whether its IC50 is strictly beneath 0.2 nM. Entry: Cc1nc(-c2ccc(F)cc2)c(-c2ccc3nc(NC(=O)c4cc5ccccc5[nH]4)cn3n2)n1C [Compound 319]
no (0)

Say whether its IC50 is strictly beneath 0.2 nM. Entry: COCCN1CCC(n2cnc(-c3ccc(F)cc3)c2-c2ccc3nc(NC(=O)c4ccnc(F)c4)cn3n2)CC1 [Compound 34]
yes (1)

Report whether reported IC50 is lower than 0.2 nM (strictly) for CC(C)(C)C(=O)Nc1cc(C(=O)Nc2cn3nc(-c4c(-c5ccc(F)cc5)nc5ccccn45)ccc3n2)ccn1 [Compound 192]
yes (1)

Does this molecule meet the criterion IC50 < 0.2 nM? O=C(Nc1cn2nc(-c3c(-c4ccc(F)cc4)nc4ccccn34)ccc2n1)c1ccncc1F [Compound 200]
no (0)

###

Quantity Name: IC50

For CK1ε (Homo sapiens (Human)), give the measured IC50 of the entry O=C(Nc1cn2nc(-c3c(-c4ccc(F)cc4)nc(C4CC4)n3C3CCN(c4ccncc4)CC3)ccc2n1)c1ccnc(F)c1 [Compound 123]
16.7 nM

Give CK1ε (Homo sapiens (Human)) IC50 for the following compound: Cc1nc(-c2ccc(F)cc2)c(-c2ccc3nc(NC(=O)c4ccnc(F)c4)cn3n2)n1C1CCN(C[C@H](O)C(F)(F)F)CC1 [Compound 143]
0.656 nM

Recall the reported IC50 of Cc1nc(-c2ccc(F)cc2)c(-c2ccc3nc(NC(=O)c4cc5ccccc5cn4)cn3n2)n1C [Compound 311] on CK1ε (Homo sapiens (Human)) and write it down.
Sequence (P49674 whole entry): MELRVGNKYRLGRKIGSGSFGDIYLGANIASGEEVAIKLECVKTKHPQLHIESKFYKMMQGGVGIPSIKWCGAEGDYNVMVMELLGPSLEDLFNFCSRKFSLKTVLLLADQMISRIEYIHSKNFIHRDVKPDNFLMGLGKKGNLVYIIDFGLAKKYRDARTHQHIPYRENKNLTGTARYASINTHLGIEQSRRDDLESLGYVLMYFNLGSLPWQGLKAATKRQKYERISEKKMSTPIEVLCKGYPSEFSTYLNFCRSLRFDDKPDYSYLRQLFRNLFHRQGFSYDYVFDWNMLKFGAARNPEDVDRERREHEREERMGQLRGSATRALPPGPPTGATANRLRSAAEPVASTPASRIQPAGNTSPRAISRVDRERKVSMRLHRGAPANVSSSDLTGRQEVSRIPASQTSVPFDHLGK
46.9 nM

Find the measured IC50 of Cc1nc(-c2ccc(F)cc2)c(-c2ccc3nc(NC(=O)C4CCC(=O)N4)cn3n2)n1C (stereo not shown) [Compound 366] with CK1ε (Homo sapiens (Human)) as test system.
25.1 nM

Supply IC50 measured with CK1ε (Homo sapiens (Human)) for O=C(Nc1cn2nc(-c3c(-c4ccc(F)cc4)ncn3-c3ccc(F)cc3)ccc2n1)c1ccnc(N2CCOCC2)c1 [Compound 419] .
35.2 nM

Please tell me the measured IC50 for Cc1nc(-c2ccc(F)cc2)c(-c2ccc3nc(NC(=O)c4ccnc(N5CCOCC5)c4)cn3n2)n1C [Compound 324] ; system: CK1ε (Homo sapiens (Human)).
1.91 nM

State IC50 on CK1ε (Homo sapiens (Human)). Entry: O=C(Nc1cn2nc(-c3c(-c4ccc(F)cc4)ncn3CCc3c[nH]cn3)ccc2n1)c1ccnc(F)c1 [Compound 255]
2.45 nM

###

For each entry below, report its IC50 value.
Experimental Target: CK1δ (Homo sapiens (Human), UniProt P48730)
Sequence (P48730 whole entry): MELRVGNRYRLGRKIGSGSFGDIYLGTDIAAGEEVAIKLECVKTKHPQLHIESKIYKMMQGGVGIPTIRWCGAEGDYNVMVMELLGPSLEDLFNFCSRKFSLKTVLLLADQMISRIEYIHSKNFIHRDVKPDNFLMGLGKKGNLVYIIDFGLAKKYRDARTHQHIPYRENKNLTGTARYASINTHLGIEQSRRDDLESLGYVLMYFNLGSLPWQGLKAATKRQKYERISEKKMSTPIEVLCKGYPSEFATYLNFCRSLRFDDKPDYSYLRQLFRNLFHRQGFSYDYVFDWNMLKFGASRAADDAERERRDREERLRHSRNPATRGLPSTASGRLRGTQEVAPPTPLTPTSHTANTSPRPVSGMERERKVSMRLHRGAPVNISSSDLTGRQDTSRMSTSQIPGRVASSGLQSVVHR
All answers are understood in nM, so give the number only.

Input Cc1nc(-c2ccc(F)cc2)c(-c2ccc3nc(NC(=O)c4cccc5cccnc45)cn3n2)n1C [Compound 344] , output reported IC50.
14.5

// Input: Cc1nc(-c2ccc(F)cc2)c(-c2ccc3nc(NC(=O)C4CCC(=O)N4)cn3n2)n1C (stereo not shown) [Compound 366] . Output its IC50 only.
1.72

Identify measured IC50 associated with Cc1nc(-c2ccc(F)cc2)c(-c2ccc3nc(NC(=O)Nc4ccc(C#N)cc4)cn3n2)n1C [Compound 408]
12.9

Answer with the recorded IC50 for the compound listed here: O=C(Nc1cn2nc(-c3c(-c4ccc(F)cc4)ncn3CC(F)F)ccc2n1)c1ccnc(F)c1 [Compound 237]
0.365

Could you please provide reported IC50 for O=C(Nc1cn2nc(-c3c(-c4ccc(F)cc4)ncn3C3CCN(CCC(F)(F)F)CC3)ccc2n1)c1ccnc(N2CCOCC2)c1 [Compound 107] ? Thanks!
0.467

Return value of IC50 for input O=C(Nc1cn2nc(-c3c(-c4ccc(F)cc4)ncn3CC3CC(F)(F)C3)ccc2n1)c1ccnc(F)c1 [Compound 249] , no commentary.
0.371

Supply reported IC50 belonging to this compound: O=C(Nc1cn2nc(-c3c(-c4ccc(F)cc4)ncn3C3CCN(CCCF)CC3)ccc2n1)c1cc(F)nc(F)c1 [Compound 88]
0.38

###

CK1δ (Homo sapiens (Human)) data, read-out pIC50
Answer as the number alone; pIC50 is minus log10 of concentration in mol/L.

Read off the recorded pIC50 for O=C(Nc1cn2nc(-c3c(-c4ccc(F)cc4)nc(C4CC4)n3C3CCN(Cc4ccncc4)CC3)ccc2n1)c1ccnc(F)c1
8.71

Report pIC50 for Cc1nc(-c2ccc(F)cc2)c(-c2ccc3nc(NC(=O)N(C)c4ccccc4)cn3n2)n1C
7.46

Give recorded pIC50. Cc1nc(-c2cccnc2)sc1C(=O)Nc1cn2nc(-c3c(-c4ccc(F)cc4)ncn3C3CCN(C[C@H](O)C(F)(F)F)CC3)ccc2n1
9.48

Please give the documented pIC50 of O=C(Nc1cn2nc(-c3c(-c4ccc(F)cc4)nc4n3CCN(C(=O)C3(C(F)(F)F)CC3)C4)ccc2n1)c1ccnc(F)c1
9.22

###

What log10 IC50 was measured for each of the following?
Please interpret these as log10 of IC50 where IC50 is in nM.

Fill in log10 IC50 for CCCn1cnc(-c2ccc(F)cc2)c1-c1ccc2nc(NC(=O)C(C)(C)C)cn2n1 tested with CK1ε (Homo sapiens (Human)).
0.00

Look up and report log10 IC50, with CK1ε (Homo sapiens (Human)) as system, for CN1CCC(C(=O)Nc2cn3nc(-c4c(-c5ccc(F)cc5)nc5ccccn45)ccc3n2)CC1
1.43

Report the value of log10 IC50 obtained on CK1ε (Homo sapiens (Human)) for Cc1nc(-c2ccncc2)sc1C(=O)Nc1cn2nc(-c3c(-c4ccc(F)cc4)ncn3C3CCN(CCO)CC3)ccc2n1 .
-1.02

GET log10 IC50 where system = CK1ε (Homo sapiens (Human)) and item = CC(C)(C)C(=O)Nc1cn2nc(-c3c(-c4ccc(F)cc4)ncn3Cc3ccoc3)ccc2n1
-0.05

Write down the reported log10 IC50 (system: CK1ε (Homo sapiens (Human))) of O=C(Nc1cn2nc(-c3c(-c4ccc(F)cc4)nc(C4CC4)n3CC(F)F)ccc2n1)c1ccnc(F)c1
0.09

Determine reported log10 IC50 for Cc1nc(-c2ccc(F)cc2)c(-c2ccc3nc(NC(=O)c4nc[nH]n4)cn3n2)n1C ; test system: CK1ε (Homo sapiens (Human)).
1.68

Print CK1ε (Homo sapiens (Human)) log10 IC50 for CC1(C)CC1C(=O)N1CCn2c(nc(-c3ccc(F)cc3)c2-c2ccc3nc(NC(=O)c4ccnc(F)c4)cn3n2)C1 (centres unmarked) .
0.46

State measured log10 IC50 of the molecule O=C(Nc1cn2nc(-c3c(-c4ccc(F)cc4)ncn3C3CCN(C(=O)c4cocn4)CC3)ccc2n1)c1ccnc(F)c1 with CK1ε (Homo sapiens (Human)).
-0.02

Provide log10 IC50, system CK1ε (Homo sapiens (Human)), entry CC(C)(NC(=O)N1CCn2c(nc(-c3ccc(F)cc3)c2-c2ccc3nc(NC(=O)c4ccnc(F)c4)cn3n2)C1)C(F)(F)F
0.83

Report value only: log10 IC50, CK1ε (Homo sapiens (Human)), Cc1nc(-c2cccnc2)sc1C(=O)Nc1cn2nc(-c3c(-c4ccc(F)cc4)ncn3C3CCN(C[C@H](O)C(F)(F)F)CC3)ccc2n1
0.10

Look up and report log10 IC50, with CK1ε (Homo sapiens (Human)) as system, for O=C(Nc1cn2nc(-c3c(-c4ccc(F)cc4)nc4ccccn34)ccc2n1)c1cccc(-c2nccs2)c1
0.83

Using CK1ε (Homo sapiens (Human)) as the test system, report measured log10 IC50 of O=C(Nc1cn2nc(-c3c(-c4ccc(F)cc4)ncn3CC(O)CO)ccc2n1)c1ccnc(F)c1 (centres unmarked) .
0.45

Report value: log10 IC50, system: CK1ε (Homo sapiens (Human)), molecule: Cc1c(C(=O)Nc2cn3nc(-c4c(-c5ccc(F)cc5)nc(C)n4C)ccc3n2)cccc1-c1cccnc1
0.21

Lab note: record log10 IC50 of Cc1nn(C)cc1CN1CCC(n2cnc(-c3ccc(F)cc3)c2-c2ccc3nc(NC(=O)c4ccnc(F)c4)cn3n2)CC1 tested on CK1ε (Homo sapiens (Human)).
0.75

###

Record form. Attribute: pIC50. Fill in for each entry.
Value format note: pIC50 is -log10 of concentration (mol/L); just state the number.

Give pIC50 for Cc1nc(-c2ccc(F)cc2)c(-c2ccc3nc(NC(=O)c4cocn4)cn3n2)n1C tested on CK1δ (Homo sapiens (Human)).
8.42

Print CK1δ (Homo sapiens (Human)) pIC50 for Cc1nc(-c2cccnc2)sc1C(=O)Nc1cn2nc(-c3c(-c4ccc(F)cc4)ncn3CCN3CCOCC3)ccc2n1 .
9.62

Report pIC50 under test system CK1δ (Homo sapiens (Human)) for O=C(Nc1cn2nc(-c3c(-c4ccc(F)cc4)nc4ccc(NC5CCC5)nn34)ccc2n1)c1ccncc1 .
7.90

Lab note: record pIC50 of Cc1nc(-c2ccc(F)cc2)c(-c2ccc3nc(NC(=O)c4ccccc4CN(C)C)cn3n2)n1C tested on CK1δ (Homo sapiens (Human)).
7.78

Enter recorded pIC50 with CK1δ (Homo sapiens (Human)) for CC(C)(C)c1cc(Cn2cnc(-c3ccc(F)cc3)c2-c2ccc3nc(NC(=O)c4ccnc(F)c4)cn3n2)n[nH]1 here.
7.38

Send back CK1δ (Homo sapiens (Human)) pIC50 of Cc1c(C(=O)Nc2cn3nc(-c4c(-c5ccc(F)cc5)nc(C)n4C)ccc3n2)cccc1-c1cccnc1 only.
9.24

# lookup: CK1δ (Homo sapiens (Human)) pIC50, key = Cc1cc(C(=O)N2CCC(n3cnc(-c4ccc(F)cc4)c3-c3ccc4nc(NC(=O)c5ccnc(F)c5)cn4n3)CC2)no1
9.62
